Below, each entry is listed with its recorded pEC50.
target: Glucose-dependent insulinotropic receptor (Homo sapiens, UniProt Q8TDV5); assay: AlphaScreen cAMP Assay: MIN6 cells [Miyazaki J et al. Endocrinology. 1990 July; 127(1):126-32] are stably transfected with an expression vector for human GPR119 cDNA (Acc. No. NP_848566). Min-6/hGPR119 cells are cultured in DMEM, 10% FBS, 50 uM β-mercaptoethanol, 0.3 mg/mL Geniticin, 2 mM GlutaMAX at 37° C. 5% CO2. For the assay, the cells are seeded in Optiplates (white, 384-well, 160W-barcoded, TC, sterile with lid, Cat. No. #6007688 (Perkin Elmer); 10000 cells/well; 50 ul). The plates covered with lids are then incubated for 24 hours at 37° C./5% CO2. After the medium is aspirated from the wells completely, 10 ul of the test compound are added, the compounds are diluted using stimulating buffer (140 mM NaCl, 3.6 mM KCl, 0.5 mM NaH2PO4, 0.5 mM MgSO4, 1.5 mM CaCl2, 10 mM Hepes, 5 mM NaHCO3; pH 7.4. 0.5 mM IBMX and 0.1% BSA, the final DMSO concentration is 1%). After 45 minutes incubation at room temperature (approx. 20° C.), the cAMP concentrations are determined using the AlphaScreen cAMP Assay Kit (Cat. No. #6760625R from PerkinElmer). 10 ul of Biotin-cAMP (final concentration 1 U/well in lysing buffer (5 mM Hepes (pH 7.4), 0.1% BSA, 0.5% Tween) and 10 uL Bead solution (final concentration 1 U/well in lysing buffer) are added. The plates are incubated for another 2 hours at room temperature. The cAMP concentrations are calculated using a cAMP standard curve from the Alpha Screen Counts. The data analysis is carried out by calculating the EC50 value and the maximum value based on a positive control, using suitable software (Graphpad Prism).
Sequence (Q8TDV5 whole entry): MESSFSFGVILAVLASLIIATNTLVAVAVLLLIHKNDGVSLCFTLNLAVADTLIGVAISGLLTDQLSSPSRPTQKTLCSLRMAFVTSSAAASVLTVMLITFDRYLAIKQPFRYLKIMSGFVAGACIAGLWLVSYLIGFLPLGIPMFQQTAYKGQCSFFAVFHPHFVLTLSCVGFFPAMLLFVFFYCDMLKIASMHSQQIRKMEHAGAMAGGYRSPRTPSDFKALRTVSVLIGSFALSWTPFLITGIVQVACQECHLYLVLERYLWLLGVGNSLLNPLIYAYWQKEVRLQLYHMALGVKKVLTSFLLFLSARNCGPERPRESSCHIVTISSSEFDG
pEC50: −log10 of the molar value.
quantity_kind: pEC50

{"molecule_smiles": "O=C(OC1CCCCC1)N1CCC(N(C(=O)c2ccc(-c3cnco3)cc2)C2CC2)CC1", "quantity_kind": "pEC50", "observed": 7.23}
{"molecule_smiles": "CC(C)(C)OC(=O)N1CCC(N(C(=O)c2ccc(-c3ccc(CS(C)(=O)=O)cc3)cc2)C2CC2)CC1", "quantity_kind": "pEC50", "observed": 7.24}
